Test: NCI Yeast Anticancer Drug Screen. Data for the bub3 strain (AID 167)
Conditions: S. cerevisiae bub3 mutant strain, at 11.0 µM, active compounds read high
This is part of a sample that, as a whole, favours compounds with a hit. Of some 79,000 tested, about 15% had one in any assay.
Below, each entry is listed with its recorded growth inhibition.

>  <molecule>
CCC(C)(c1ccc(O)c(C)c1)c1ccc(O)c(C)c1

>  <quantityUnit>
%

>  <growth inhibition>
47

$$$$
>  <molecule>
Clc1cc(Cc2ccc(N=C/C=C/c3ccccc3)c(Cl)c2)ccc1N=C/C=C\c1ccccc1

>  <quantityUnit>
%

>  <growth inhibition>
-9

$$$$
>  <molecule>
N#C/C(=C/N1C(=O)/C(=C/c2ccc([N+](=O)[O-])cc2)SC1=S)c1nc2ccccc2s1

>  <quantityUnit>
%

>  <growth inhibition>
9

$$$$
>  <molecule>
Cc1ccc(S(=O)(=O)Nc2ccc3c(c2)C(O)c2ccccc2-3)cc1 (stereo not given)

>  <quantityUnit>
%

>  <growth inhibition>
2

$$$$
>  <molecule>
CC(=O)C1(O)Cc2c(O)c3c(c(O)c2C(OC2CC(N)C(O)C(C)O2)C1)C(=O)c1ccccc1C3=O (stereo not given)

>  <quantityUnit>
%

>  <growth inhibition>
91

$$$$
>  <molecule>
CNc1nc(C)nc2c1cnn2-c1ccc([N+](=O)[O-])cc1

>  <quantityUnit>
%

>  <growth inhibition>
-12

$$$$
>  <molecule>
COc1cc(N(C)C)ccc1/C=C\c1ccnc2ccccc12

>  <quantityUnit>
%

>  <growth inhibition>
-14

$$$$
>  <molecule>
CCCCCCCCCCCCCCCCNC(=O)/C(=C\c1ccc(Cl)c(Cl)c1)NC(=O)c1ccccc1

>  <quantityUnit>
%

>  <growth inhibition>
-6

$$$$
>  <molecule>
O=C1CSC(=S)N1Cc1ccc(Cl)cc1Cl

>  <quantityUnit>
%

>  <growth inhibition>
99

$$$$
>  <molecule>
CCN(CC)CCNC(=O)c1nn(-c2ccc(Cl)cc2)c2c1CCc1cc(OC)ccc1-2

>  <quantityUnit>
%

>  <growth inhibition>
10

$$$$

----------
Assay: NCI Yeast Anticancer Drug Screen. Data for the rad18 strain (AID 177)
Details: S. cerevisiae rad18 mutant growth inhibition; at 100.0 µM
About 79,000 compounds went through this panel and 15% of them were active in at least one assay; those are over-represented in the sample as a whole. The source made the active and inactive calls. No stated cut-off is given here; in the data, active means growth inhibition above about 70%; inactive means the rest.
Outcomes: Yes = active, No = inactive

>  <compound>
NC(=O)N1c2ccccc2C=Cc2ccccc21

>  <assignedClass>
No

$$$$
>  <compound>
CC(=O)CC(=O)/C=C/c1cccs1

>  <assignedClass>
Yes

$$$$
>  <compound>
Cc1nc2c(ncn2CCO)c(=O)[nH]1

>  <assignedClass>
No

$$$$
>  <compound>
C=C1N(C)c2ccc(Cl)cc2C1(C)C

>  <assignedClass>
Yes

$$$$
>  <compound>
S=C(S)NCC1CCC(CNC(=S)S)CC1 (configuration not stated)

>  <assignedClass>
Yes

$$$$
>  <compound>
BrCc1ccccc1C(c1ccccc1)c1ccccc1

>  <assignedClass>
Yes

$$$$
>  <compound>
Cc1ccc(Nc2c3c(c(C#N)c4nc5ccccc5n24)CCCC3)cc1

>  <assignedClass>
Yes

$$$$

----------
Assay: NCI Yeast Anticancer Drug Screen. Data for the wt2 strain (AID 169);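 note: 0% = growth of vehicle-treated yeast cultures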
Details: S. cerevisiae wt2 strain growth inhibition; at 100.0 µM
Compounds without any hit were thinned out: in the full panel of roughly 79,000, 15% have a hit. Activity calls are given as the source filed them. Rule as the data show it: active = growth inhibition above about 70%; inactive = the rest.
Outcomes: active, inactive

>  <compound>
N#CC(=S)Nc1cccc(Cl)c1

>  <assignedClass>
active

$$$$
>  <compound>
Clc1nc(C(Cl)Cl)nc2sc3c(c12)CCCC3

>  <assignedClass>
active

$$$$
>  <compound>
O=C1CC(=O)N(C2CCCCC2)C(=O)N1c1ccccc1S(=O)(=O)Oc1ccccc1

>  <assignedClass>
inactive

$$$$
>  <compound>
Cc1cc(N=C2C=CC(=[N+](C)C)C=C2)c(N)cc1N

>  <assignedClass>
inactive

$$$$
>  <compound>
CCC(=O)N(c1ccccc1)C(C)CN1CCC(O)(c2cccc(C(F)(F)F)c2)CC1 (stereo not drawn)

>  <assignedClass>
active

$$$$
>  <compound>
N#C/C(=C\c1ccccc1)c1ccccc1F

>  <assignedClass>
inactive

$$$$
>  <compound>
S=C(S)NCC1CCC(CNC(=S)S)CC1 (stereo not drawn)

>  <assignedClass>
active

$$$$
>  <compound>
CCCCCCCCN1C(=O)c2ccccc2C1=O

>  <assignedClass>
inactive

$$$$
>  <compound>
COC(=O)CSc1nnc(CSc2ccc(Cl)cc2)n1-c1ccccc1

>  <assignedClass>
inactive

$$$$
>  <compound>
Cc1cccc(/C=N/NC(=S)N(C)CCc2ccccn2)n1

>  <assignedClass>
active

$$$$
>  <compound>
COCCCN(Cc1cc(OC)c(OC)c(OC)c1)C(=S)Nc1cccc(Cl)c1

>  <assignedClass>
inactive

$$$$
>  <compound>
S=C1SCN(CCc2ccccc2)CN1CCc1ccccc1

>  <assignedClass>
inactive

$$$$
>  <compound>
N#CSC1CCCCNC1=O (stereo not drawn)

>  <assignedClass>
active

$$$$
